Reference for the values: patent US20170107207A1

biological target: TIP48/TIP49 complex (Homo sapiens, UniProt Q9Y230+Q9Y265); experiment: ATPase assay of TIP48/TIP49 complex (ADP-Glo); settings: concentration at which the ATPase activity was inhibited by 50%
Sequence (Q9Y230 whole entry): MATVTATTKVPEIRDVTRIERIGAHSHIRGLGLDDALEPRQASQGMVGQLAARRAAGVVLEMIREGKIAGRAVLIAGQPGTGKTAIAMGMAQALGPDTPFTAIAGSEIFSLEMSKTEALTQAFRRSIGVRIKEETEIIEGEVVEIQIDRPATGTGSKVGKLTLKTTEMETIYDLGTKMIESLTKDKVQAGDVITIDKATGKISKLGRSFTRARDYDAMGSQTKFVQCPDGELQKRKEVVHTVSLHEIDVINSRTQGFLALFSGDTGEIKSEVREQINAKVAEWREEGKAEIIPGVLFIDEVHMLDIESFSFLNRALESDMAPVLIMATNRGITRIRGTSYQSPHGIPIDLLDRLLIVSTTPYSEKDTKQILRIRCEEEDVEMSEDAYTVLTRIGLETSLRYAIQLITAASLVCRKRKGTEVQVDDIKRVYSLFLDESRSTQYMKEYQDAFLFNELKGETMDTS
Sequence (Q9Y265 whole entry): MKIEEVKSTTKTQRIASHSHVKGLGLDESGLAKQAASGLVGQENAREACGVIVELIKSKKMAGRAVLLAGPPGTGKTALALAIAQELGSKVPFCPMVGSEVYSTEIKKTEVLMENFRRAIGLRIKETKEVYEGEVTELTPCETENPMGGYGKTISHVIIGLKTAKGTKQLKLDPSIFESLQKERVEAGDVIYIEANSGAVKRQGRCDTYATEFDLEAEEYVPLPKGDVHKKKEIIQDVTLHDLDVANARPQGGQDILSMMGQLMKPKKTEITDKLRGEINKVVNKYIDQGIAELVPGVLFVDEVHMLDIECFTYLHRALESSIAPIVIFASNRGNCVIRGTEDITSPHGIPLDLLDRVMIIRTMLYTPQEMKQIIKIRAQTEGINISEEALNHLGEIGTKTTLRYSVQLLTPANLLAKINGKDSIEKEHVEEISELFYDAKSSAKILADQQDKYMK
pIC50: −log10 of the molar value.
Decide by pIC50: equal to or exceeding 7 means Fulfilled, less means Not fulfilled.

CCOc1ccc(Cl)cc1C(=O)NCC(C)(C)CC(=O)Nc1c(C)n(C)n(-c2cccc(C)n2)c1=O [Example 152] | Fulfilled
[2H]C([2H])([2H])N(CCc1c(NC(=O)CC(C)(C)CNC(=O)c2cc(Cl)ccc2OCC)c(=O)n(-c2ccccc2)n1C)C([2H])([2H])[2H] [Example 31] | Fulfilled
CCOc1ncc(Cl)cc1NC(=O)CC(C)(C)CC(=O)Nc1c(C(C)OC)n(C)n(-c2ccccc2)c1=O (centres unmarked) [Example 126] | Fulfilled

Determine whether measured pIC50 meets or exceeds 7 for CCOc1ccc(Cl)cc1C(=O)NCC(C)(C)CC(=O)Nc1c(C(CN(C)C)OC)n(C)n(-c2ccccc2)c1=O (centres unmarked) [Example 79]
Fulfilled
